- target under test: human GRP receptor (human, UniProt P30550 1-384)
- Sequence (P30550 whole entry): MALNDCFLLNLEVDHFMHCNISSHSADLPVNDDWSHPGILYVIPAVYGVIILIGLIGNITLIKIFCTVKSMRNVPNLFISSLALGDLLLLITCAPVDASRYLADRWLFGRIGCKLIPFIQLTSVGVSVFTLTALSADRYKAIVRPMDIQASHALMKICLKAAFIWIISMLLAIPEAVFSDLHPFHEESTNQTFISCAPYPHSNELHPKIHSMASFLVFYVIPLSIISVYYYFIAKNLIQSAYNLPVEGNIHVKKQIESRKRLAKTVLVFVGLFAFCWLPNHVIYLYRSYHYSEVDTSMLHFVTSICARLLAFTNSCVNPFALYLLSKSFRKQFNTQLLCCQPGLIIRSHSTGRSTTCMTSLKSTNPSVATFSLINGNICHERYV
- test: cell-based or functional assay
Starred links: 1 amine or outer side, 2 acyl side, 3 side chain; linkers in the order of their positions; H or OH if unused. Non-standard residues stand in square brackets, D forms with d. *: point of attachment. Trp(6-Me) = Cc1ccc2c(C[C@H](N)C(=O)O)c[nH]c2c1; Trp(7-Me) = Cc1cccc2c(C[C@H](N)C(=O)O)c[nH]c12; C20 diacid = O=C(O)CCCCCCCCCCCCCCCCCCC(=O)*; d(γGlu) = O=C(O)[C@@H](CCC(=O)[*:2])N[*:1]; C18 diacid = O=C(O)CCCCCCCCCCCCCCCCC(=O)*; γGlu = O=C(O)[C@H](CCC(=O)[*:2])N[*:1]; NMeH = CN[C@@H](Cc1c[nH]cn1)C(=O)O; Cha = N[C@@H](CC1CCCCC1)C(=O)O; Nle = CCCC[C@H](N)C(=O)O; AEEA = NCCOCCOCC(=O)O; Sar = CNCC(=O)O
List of hIP1 GRPR EC50 values.
Note: unit nM is implicit; provide only the numeric part.

[[record]]
binder = "{C18 diacid}-[γGlu][AEEA][AEEA]GNHWAV[dA]HL[Cha]-NH2 (SMILES CC(C)C[C@H](NC(=O)[C@H](Cc1c[nH]cn1)NC(=O)[C@@H](C)NC(=O)[C@@H](NC(=O)[C@H](C)NC(=O)[C@H](Cc1c[nH]c2ccccc12)NC(=O)[C@H](Cc1c[nH]cn1)NC(=O)[C@H](CC(N)=O)NC(=O)CNC(=O)COCCOCCNC(=O)COCCOCCNC(=O)CC[C@H](NC(=O)CCCCCCCCCCCCCCCCC(=O)O)C(=O)O)C(C)C)C(=O)N[C@@H](CC1CCCCC1)C(N)=O) [Peptide 119]"
endpoint = "hIP1 GRPR EC50"
value = 660


Memo: {C20 diacid}-[γGlu][γGlu][AEEA][AEEA]SEH[Trp(7-Me)]AV[BABA][NMeH]L[Nle]-NH2 [Peptide 277] , reported hIP1 GRPR EC50: 13.1

Memo: {C18 diacid}-[d(γGlu)][AEEA][AEEA]GNH[Trp(6-Me)]AV[dA]HL[Nle][Sar]-NH2 (SMILES CCCC[C@H](NC(=O)[C@H](CC(C)C)NC(=O)[C@H](Cc1c[nH]cn1)NC(=O)[C@@H](C)NC(=O)[C@@H](NC(=O)[C@H](C)NC(=O)[C@H](Cc1c[nH]c2cc(C)ccc12)NC(=O)[C@H](Cc1c[nH]cn1)NC(=O)[C@H](CC(N)=O)NC(=O)CNC(=O)COCCOCCNC(=O)COCCOCCNC(=O)CC[C@@H](NC(=O)CCCCCCCCCCCCCCCCC(=O)O)C(=O)O)C(C)C)C(=O)N(C)CC(N)=O) [Peptide 84] , reported hIP1 GRPR EC50: 2550
